# system.name: NS3/NS4A-2 (full-length HCV NS3 protease) (Hepatitis C virus genotype 1a, UniProt P27958)
# Construct: Recombinant E. coli or Baculovirus full-length NS3 was diluted to 3.33 μM with assay buffer
# Sequence (P27958 1027-1657): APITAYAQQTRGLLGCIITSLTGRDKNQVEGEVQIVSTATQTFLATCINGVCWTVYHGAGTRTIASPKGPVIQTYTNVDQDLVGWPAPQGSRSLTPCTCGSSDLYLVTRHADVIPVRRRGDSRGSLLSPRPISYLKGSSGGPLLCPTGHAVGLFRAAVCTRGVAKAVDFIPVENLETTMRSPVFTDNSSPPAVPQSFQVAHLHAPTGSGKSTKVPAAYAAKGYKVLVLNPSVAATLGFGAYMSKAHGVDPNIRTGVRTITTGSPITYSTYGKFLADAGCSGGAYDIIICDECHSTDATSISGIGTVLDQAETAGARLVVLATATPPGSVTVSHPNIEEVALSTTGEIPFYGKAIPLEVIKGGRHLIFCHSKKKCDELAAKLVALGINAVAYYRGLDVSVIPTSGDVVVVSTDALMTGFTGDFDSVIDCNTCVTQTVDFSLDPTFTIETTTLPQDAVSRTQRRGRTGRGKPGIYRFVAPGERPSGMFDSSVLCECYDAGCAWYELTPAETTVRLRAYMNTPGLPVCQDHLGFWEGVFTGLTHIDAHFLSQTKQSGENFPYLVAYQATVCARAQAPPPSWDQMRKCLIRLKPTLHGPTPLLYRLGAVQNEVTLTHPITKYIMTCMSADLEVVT
# procedure.details: NS3 Inhibition Assay (NS3-NS4 protease assay, RETS1 substrate, fluorescence kinetic read)
# run.parameters: NS3/NS4A-2 protease
Recorded measurements of IC50, one per entry
measured.property: IC50

compound_string=CC[C@@H]1C[C@@]12NC(=O)[C@@H]1C[C@H](CN1C(=O)[C@@H](NC(=O)OC(C)(C)C)C(C)(C)C)Oc1nc3ccccc3n1C/C=C\CCCC1(CC1)S(=O)(=O)NC2=O system_name="NS3/NS4A-2 (full-length HCV NS3 protease) (Hepatitis C virus genotype 1a, UniProt P27958)" measured_property=IC50 reported_value="< 100 nM"
compound_string=CC[C@@H]1C[C@@]12NC(=O)[C@@H]1C[C@H](CN1C(=O)[C@@H](NC(=O)OC(C)(C)C)C(C)(C)C)Oc1nc3ccccc3n1CCC/C=C\CCC1(CC1)S(=O)(=O)NC2=O system_name="NS3/NS4A-2 (full-length HCV NS3 protease) (Hepatitis C virus genotype 1a, UniProt P27958)" measured_property=IC50 reported_value="< 100 nM"
compound_string=CC[C@@H]1C[C@@]12NC(=O)[C@@H]1C[C@H](CN1C(=O)[C@@H](NC(=O)OC(C)(C)C)C(C)(C)C)Oc1nc3ccccc3n1CCCCCCCC1(CC1)S(=O)(=O)NC2=O system_name="NS3/NS4A-2 (full-length HCV NS3 protease) (Hepatitis C virus genotype 1a, UniProt P27958)" measured_property=IC50 reported_value="100 to 1000 nM"

// provenance: patent US20110082182A1
